Test: Inhibition of Cyclophilin D (unknown origin) activity preincubated for 15 mins followed Suc-AAPF-pNA substrate addition by chymotrypsin coupled based spectrophotometry assay
endpoint.label: Ki (µM)
Field format: number, assumed µM, no unit text.

Nc1ccc(CNC(=O)NCC(=O)N2CCCC2)cc1: 4.9

Query: For the compound shown here, CCOC(=O)CNC(=O)NCc1ccc(NC(C)=O)cc1 , give the reported Ki.
Result: 2.6
